Here the recorded Dose/organ is given for each entry.
- Test system: Mus musculus
- Experiment Description: Tested for biodistribution of radioactivity after 1 hr of intravenous injection in mice stomach
- Format: ADME, organism-based
- Particulars: in vivo
Field: numeric (%). Do not append units.

INSERT INTO measurements (compound, experimental_target, measurement_name, observed_measurement) VALUES
  ('N[C@@H](CSC1CC(=O)N(CCOC(=O)CNC(=O)c2cccc(I)c2)C1=O)C(=O)O (stereo not given in full)', 'Mus musculus', 'Dose/organ', 0.92),
  ('CCc1ccc(O)c(I)c1', 'Mus musculus', 'Dose/organ', 25.55),
  ('NCCCCC(N)C(=O)NC(=O)c1cccc(I)c1 (stereo not given)', 'Mus musculus', 'Dose/organ', 0.81),
  ('CN[C@@H](CCCCN)C(=O)NC(=O)c1cccc(I)c1', 'Mus musculus', 'Dose/organ', 0.43);

Okay, next one:
GET /values?readout=Dose/organ&item= CN[C@@H](CSC1CC(=O)N(CCOC(=O)CNC(=O)c2cccc(I)c2)C1=O)C(=O)O (stereo not given in full) 0.56

---

- Tested on: Mus musculus
- Experiment Description: Tested for biodistribution of radioactivity after 1 hr of intravenous injection in mice blood
- Type: ADME, organism-based
- Particulars: in vivo
// reported Dose/g for each item listed
Please respond with the number in % and leave the unit unwritten.

Completed entries (count: 4):
INSERT INTO measurements (compound, observed_measurement) VALUES
  ('NCCCCC(N)C(=O)NC(=O)c1cccc(I)c1 (stereo not given)', 31.31),
  ('N[C@@H](CSC1CC(=O)N(CCOC(=O)CNC(=O)c2cccc(I)c2)C1=O)C(=O)O (stereo not given in full)', 29.3),
  ('CN[C@@H](CSC1CC(=O)N(CCOC(=O)CNC(=O)c2cccc(I)c2)C1=O)C(=O)O (stereo not given in full)', 0.24),
  ('CN[C@@H](CCCCN)C(=O)NC(=O)c1cccc(I)c1', 0.28);

Form field: reported Dose/g of CCc1ccc(O)c(I)c1 5.14

---

- Test system: Mus musculus
- Experiment Description: Tested for biodistribution of radioactivity after 6 hr of intravenous injection in mice kidneys
- Type: ADME, organism-based, Kidney
- Particulars: in vivo
Below, each of the compounds is paired with its reported Dose/organ value.
Unit % implied. Number only.

For N[C@@H](CSC1CC(=O)N(CCOC(=O)CNC(=O)c2cccc(I)c2)C1=O)C(=O)O (stereo not given in full) , what is its reported Dose/organ? 4.45

Then this compound: CCc1ccc(O)c(I)c1 0.57

Try the compound CN[C@@H](CCCCN)C(=O)NC(=O)c1cccc(I)c1 0.31

Moving on to NCCCCC(N)C(=O)NC(=O)c1cccc(I)c1 (stereo not given) 6.57

Input CN[C@@H](CSC1CC(=O)N(CCOC(=O)CNC(=O)c2cccc(I)c2)C1=O)C(=O)O (stereo not given in full) 0.06

---

List of Dose/organ values.
- Test system: Mus musculus
- Experiment Description: Tested for biodistribution of radioactivity after 3h of intravenous injection in mice liver
- Assay type: ADME, organism-based
- Particulars: in vivo
Write the number in % without appending the unit.

Recorded results for 4 compounds are shown here.
INSERT INTO measurements (compound, experimental_target, measurement_name, reading_unit, observed_measurement) VALUES
  ('CCc1ccc(O)c(I)c1', 'Mus musculus', 'Dose/organ', '%', 1.44),
  ('CN[C@@H](CCCCN)C(=O)NC(=O)c1cccc(I)c1', 'Mus musculus', 'Dose/organ', '%', 4.18),
  ('CN[C@@H](CSC1CC(=O)N(CCOC(=O)CNC(=O)c2cccc(I)c2)C1=O)C(=O)O (stereo not given in full)', 'Mus musculus', 'Dose/organ', '%', 1.56),
  ('N[C@@H](CSC1CC(=O)N(CCOC(=O)CNC(=O)c2cccc(I)c2)C1=O)C(=O)O (stereo not given in full)', 'Mus musculus', 'Dose/organ', '%', 6.43);

Let's switch to this compound now.
State the recorded Dose/organ for this entry: NCCCCC(N)C(=O)NC(=O)c1cccc(I)c1 (stereo not given) 11.17
